- measurement notes: recombinant UMI read abundance after kanamycin selection (control-corrected) (log10(CPM+1)); higher = more efficient recombination; extreme values may be limits of the assay; sequences stand for … in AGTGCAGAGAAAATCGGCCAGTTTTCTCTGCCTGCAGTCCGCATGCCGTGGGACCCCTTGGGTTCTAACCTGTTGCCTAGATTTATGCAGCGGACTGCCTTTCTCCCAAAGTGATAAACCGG…AGGTTGGTTTCACT; site = the 11-nt donor;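 note: IS621 bridge recombinase in Escherichia coli cells against a fixed T5 target plasmid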
So I've got a bunch of sequences here, and I need their recombinant UMI read abundance (log10) values.
Answers are plain numbers.

GCTTATCCATGGACCGGTTTTCCCGGTAATCCGTATTTGCT (site GATTATCCTAG)
0
CAATTGGCATGGACCGGTTTTCCCGGTAATCCGTATTTGGA (site CAATTGGCTTC)
0.902
CAAGCACCATGGACCGGTTTTCCCGGTAATCCGTATTTGTG (site CAAGCTCCTCA)
0
TTTGAGACATGGACCGGTTTTCCCGGTAATCCGTATTTGGT (site ATTGAGACTAC)
0.0113

Exercise: Which recombinant UMI read abundance (log10) is listed for AGATAGGCATGGACCGGTTTTCCCGGTAATCCGTATTTGTA (site AGATAGGCTTA) ?
Solution: 2.52

###

- measurement notes: recombinant UMI read abundance after kanamycin selection (control-corrected) (log10(CPM+1)); higher = more efficient recombination; extreme values may be limits of the assay; sequences stand for … in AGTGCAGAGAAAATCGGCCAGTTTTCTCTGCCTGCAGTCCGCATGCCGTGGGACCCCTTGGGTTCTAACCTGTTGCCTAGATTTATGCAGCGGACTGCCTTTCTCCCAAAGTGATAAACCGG…AGGTTGGTTTCACT; site = the 11-nt donor
So I've got a bunch of sequences here, and I need their recombinant UMI read abundance (log10) values.
One number for each entry.

Need recombinant UMI read abundance (log10) for each of these sequences.
1. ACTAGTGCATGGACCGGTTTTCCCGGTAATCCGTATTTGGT (site ACTAGAGCTAC)
2. TACGGCCCATGGACCGGTTTTCCCGGTAATCCGTATTTGTT (site CACGGCCCTAA)

Solution:
1.08
0.00844

Need recombinant UMI read abundance (log10) for each of these sequences.
1. AGAAAAGCATGGACCGGTTTTCCCGGTAATCCGTATTTGCT (site AGAAAGGCTAG)
2. TAAAGTCCATGGACCGGTTTTCCCGGTAATCCGTATTTGCA (site TAAAGTCCTTA)
3. AGTTAGACATGGACCGGTTTTCCCGGTAATCCGTATTTGAG (site AGTTAGACTCT)
4. CCCTTCTCATGGACCGGTTTTCCCGGTAATCCGTATTTGGA (site CCCTTCTCTCC)
5. ACACACCCATGGACCGGTTTTCCCGGTAATCCGTATTTGTG (site ACACACCCTCA)

Solution:
1.38
0.00275
1.23
0.0081
0.012

Need recombinant UMI read abundance (log10) for each of these sequences.
1. CAATCCCCATGGACCGGTTTTCCCGGTAATCCGTATTTGCT (site CAATGCCCTAG)
2. CGTAAGACATGGACCGGTTTTCCCGGTAATCCGTATTTGCA (site AGGAAGACTTG)

Solution:
[0, 0]

meta.source: the supplement of paper PMC11208160
